All figures here come from the supplement of paper PMC9170038.

Entries and their measured apparent KD of MS2 coat protein follow.
Tested on: MS2 coat protein
Experiment: apparent KD of MS2 coat protein; designed switch direction (-1 OFF switch, 1 ON switch): -1; higher = weaker reporter binding
Conditions: Eterna round: R95; input ligand: microRNA oligo, concentration not stated

{"seq": "GACUGCAGAGGAUAUACAUGAGGAUCACCCAUGUGAGAUGCCUGACAGGUGUUGCUGAGUAGAAGGCUGCACUG [Onorveer] (puzzle: Exclusion 3)", "readout_units": "nM", "apparent KD of MS2 coat protein": 13.2}
{"seq": "UUCUUGUGAGGAUAUCAGUAGUAAAUAAAUAAAAUUACUACUGAGAAGGCACAUGAGGAUCACCCAUGUUCCUU [salish99_ex3_r3_092] (puzzle: Exclusion 4)", "readout_units": "nM", "apparent KD of MS2 coat protein": 15}
{"seq": "GAGAAACAUGAGGAUCACCCAUGUAAGGAUAUGCUGAAAAUCACGGAUUAAUCGUGCAGCAGAAGGUACAAAGG [Mat - Mod of my Eli Mod D42] (puzzle: Exclusion 1)", "readout_units": "nM", "apparent KD of MS2 coat protein": 110}
{"seq": "GAUGAGGUAGGAUAUACGAUAAUAUAGGGUAGAUAUAUAACACAUGAGGAUCACCCAUGUAGAAGGACCAGUAG [Mat - Exclusion 2 - Mod of my Tesla design - D66] (puzzle: Exclusion 2)", "readout_units": "nM", "apparent KD of MS2 coat protein": 33.4}
{"seq": "AAUAACAGAGGAUAUACUAUUUUAUGUAUUUAUUAUUUUAAACAUGAGGAUCACCCAUGUAGAAGGCUGAUUGA [JMF 70] (puzzle: Exclusion 2)", "readout_units": "nM", "apparent KD of MS2 coat protein": 28.5}
